Reference for the values: patent US20010038824A1

Tested on: Candida albicans
protocol text: Murine systemic candidiasis
Assay type: in vivo, mice
recorded conditions: i.v., b.i.d×1 day followed by q.d.×2 days; survival on day 14
Numbered stars: 1 amine (or outer) side, 2 acyl side, 3 side chain; on linkers, the order of the positions; unused ones are H or OH. Bridge positions count the residues as written; N and C are the ends. Square brackets hold non-standard residues; d marks the D form. Peptide text beside a SMILES is read from it. ξ: configuration not given here. X9 = O=C(C[C@@H](CCc1ccc(-c2ccc(OCCCc3ccccc3)cc2)cc1)N[*:2])[*:1]; X2 = NC(=O)CC(O)C(N[*:1])C(=O)[*:2]; X1 = O=C(C1C(O)CCN1[*:1])[*:2]; ξY = NC(Cc1ccc(O)cc1)C(=O)O; ξHyp = O=C(O)C1CC(O)CN1; ξOrn = NCCCC(N)C(=O)O; ξT = CC(O)C(N)C(=O)O; ξV = CC(C)C(N)C(=O)O; ξA = CC(N)C(=O)O
assay readout: In vivo antifungal activity against systemic candidiasis in mice, ED50 on day 14

INPUT: What value of measured In vivo antifungal activity against systemic candidiasis in mice, ED50 on day 14 is listed for CC1NC(=O)C(C(C)O)NC(=O)C[C@@H](CCc2ccc(-c3ccc(OCCCc4ccccc4)cc3)cc2)NC(=O)C(CCCN)NC(=O)C(C(C)O)NC(=O)CNC(=O)C(C(O)CC(N)=O)NC(=O)C2C(O)CCN2C(=O)C(C(C)O)NC(=O)C(C(C)O)NC(=O)C2CC(O)CN2C(=O)C(C(C)C)NC(=O)C(Cc2ccc(O)cc2)NC1=O (stereo partly shown) [Aerothricin 46] ([ξT][ξA][ξY][ξV][ξHyp][ξT][ξT][X1][X2]G[ξT][ξOrn]; linker N-C via X9) ?
OUTPUT: 0.4 mg/kg
